Biological target: human enzyme NAMPT (full length) (Homo sapiens, UniProt P43490)
Construct: human enzyme NAMPT (full length)
Sequence (P43490 whole entry): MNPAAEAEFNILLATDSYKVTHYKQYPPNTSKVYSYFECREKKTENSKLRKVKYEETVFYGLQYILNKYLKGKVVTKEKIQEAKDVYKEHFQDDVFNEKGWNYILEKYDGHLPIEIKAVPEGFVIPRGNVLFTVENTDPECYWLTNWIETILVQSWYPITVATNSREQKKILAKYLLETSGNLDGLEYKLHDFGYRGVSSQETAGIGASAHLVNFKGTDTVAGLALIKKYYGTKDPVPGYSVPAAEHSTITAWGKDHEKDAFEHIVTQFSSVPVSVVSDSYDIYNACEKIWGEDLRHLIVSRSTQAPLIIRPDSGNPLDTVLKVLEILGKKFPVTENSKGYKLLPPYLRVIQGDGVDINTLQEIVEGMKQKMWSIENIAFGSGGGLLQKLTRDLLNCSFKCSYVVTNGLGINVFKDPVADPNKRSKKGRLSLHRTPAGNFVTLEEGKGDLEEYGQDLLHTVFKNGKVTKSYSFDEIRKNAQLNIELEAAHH
Experiment: NMN fluorescence biochemical assay (stimulation of NMN synthesis by NAMPT)
Details: fold change of maximal activation compared to DMSO
MEASURED QUANTITY: Enzymatic Emax

{"columns": ["COMPOUND", "RESULT"],
 "data": [
  ["Cn1ncc(Cl)c1CC1c2cc(C(C)(C)O)ccc2C(=O)N1Cc1ccc2[nH]nnc2c1 (stereo not drawn)", "B (3≥B>2)"],
  ["Cn1nc(F)c(Cl)c1CC1c2ccccc2C(=O)N1CC1CC2(CNC(=O)O2)C1 (stereo not drawn)", "A (A>3)"],
  ["Cn1ncc(Cl)c1CC1c2cc(F)ccc2C(=O)N1CC1CC2(CNC(=O)O2)C1 (stereo not drawn)", "B (3≥B>2)"],
  ["Cn1ncc(Cl)c1CC1c2cc(Cl)ccc2C(=O)N1CC1CC2(CNC(=O)O2)C1 (stereo not drawn)", "B (3≥B>2)"],
  ["CC1(C)c2ccccc2C(=O)N1Cc1ccc2[nH]c(=O)oc2c1", "B (3≥B>2)"]
]}

[Q] Find Enzymatic Emax (human enzyme NAMPT (full length) (Homo sapiens, UniProt P43490)) for the entry Cc1ocnc1CC1c2ccccc2C(=O)N1Cc1ccc2[nH]c(=O)oc2c1 (stereo not drawn)
[A] A (A>3)

[Q] Find Enzymatic Emax (human enzyme NAMPT (full length) (Homo sapiens, UniProt P43490)) for the entry Cn1ncc(Cl)c1CC1c2ccccc2C(=O)N1Cc1nn[nH]c1F (stereo not drawn)
[A] C (2≥C)

[Q] Find Enzymatic Emax (human enzyme NAMPT (full length) (Homo sapiens, UniProt P43490)) for the entry COc1nc2cc(CN3C(=O)c4ccccc4C3Cc3ncccc3Br)ccc2[nH]1 (stereo not drawn)
[A] B (3≥B>2)

[Q] Find Enzymatic Emax (human enzyme NAMPT (full length) (Homo sapiens, UniProt P43490)) for the entry O=C1c2ccccc2C(Cc2ccccc2F)N1Cc1ccc2[nH]c(=O)oc2c1 (stereo not drawn)
[A] A (A>3)

[Q] Find Enzymatic Emax (human enzyme NAMPT (full length) (Homo sapiens, UniProt P43490)) for the entry O=C1c2ccccc2C(Cc2ncccc2Br)N1[C@H]1C[C@H](c2c[nH]nn2)C1 (stereo partly drawn)
[A] C (2≥C)
